Test: Hepatic extraction ratio in human liver microsomes in presence of NADPH by LC-MS/MS analysis
Type: ADME, Microsome
Details: read-out: ERH
property-label: hepatic extraction ratio
Answers are plain numbers.

Exercise: # lookup: hepatic extraction ratio of C/C(=N\Nc1nc2ccccc2n1C1CN(C2CCN(c3cccc4c3C(=O)N(C3CCC(=O)NC3=O)C4=O)CC2)C1)c1ccccn1 (stereo unspecified)
Key: 0.902

---

Assay: Cmax in Balb/c mouse at 20 mg/kg, po by LC-MS/MS analysis
Type: ADME, organism-based
Conditions: in vivo
property-label: Cmax (ng/mL)
Numbers only, in ng/mL.

Exercise: # lookup: Cmax of C/C(=N\Nc1nc2ccccc2n1C1CN(C2CCN(c3cccc4c3C(=O)N(C3CCC(=O)NC3=O)C4=O)CC2)C1)c1ccccn1 (stereo unspecified)
Key: 25.4

The values you see were collected from ChEMBL document CHEMBL6178017.
